biological target: Angiotensin Converting Enzyme (Oryctolagus cuniculus, UniProt P12822); construct: The enzyme was isolated from rabbit lung and purified via calcium phosphate gel; assay: Inhibition of Angiotensin Converting Enzyme (fluorometric histidylleucine release from angiotensin I); conditions: enzyme from rabbit lung; human angiotensin I substrate; pH 7.5; 30 minutes at 37° C; inhibitor range 10^-4 to 10^-9 M; read-out: Concentration giving 50% Inhibition of Conversion of Angiotensin I to Angiotensin II
Sequence (P12822 34-1310): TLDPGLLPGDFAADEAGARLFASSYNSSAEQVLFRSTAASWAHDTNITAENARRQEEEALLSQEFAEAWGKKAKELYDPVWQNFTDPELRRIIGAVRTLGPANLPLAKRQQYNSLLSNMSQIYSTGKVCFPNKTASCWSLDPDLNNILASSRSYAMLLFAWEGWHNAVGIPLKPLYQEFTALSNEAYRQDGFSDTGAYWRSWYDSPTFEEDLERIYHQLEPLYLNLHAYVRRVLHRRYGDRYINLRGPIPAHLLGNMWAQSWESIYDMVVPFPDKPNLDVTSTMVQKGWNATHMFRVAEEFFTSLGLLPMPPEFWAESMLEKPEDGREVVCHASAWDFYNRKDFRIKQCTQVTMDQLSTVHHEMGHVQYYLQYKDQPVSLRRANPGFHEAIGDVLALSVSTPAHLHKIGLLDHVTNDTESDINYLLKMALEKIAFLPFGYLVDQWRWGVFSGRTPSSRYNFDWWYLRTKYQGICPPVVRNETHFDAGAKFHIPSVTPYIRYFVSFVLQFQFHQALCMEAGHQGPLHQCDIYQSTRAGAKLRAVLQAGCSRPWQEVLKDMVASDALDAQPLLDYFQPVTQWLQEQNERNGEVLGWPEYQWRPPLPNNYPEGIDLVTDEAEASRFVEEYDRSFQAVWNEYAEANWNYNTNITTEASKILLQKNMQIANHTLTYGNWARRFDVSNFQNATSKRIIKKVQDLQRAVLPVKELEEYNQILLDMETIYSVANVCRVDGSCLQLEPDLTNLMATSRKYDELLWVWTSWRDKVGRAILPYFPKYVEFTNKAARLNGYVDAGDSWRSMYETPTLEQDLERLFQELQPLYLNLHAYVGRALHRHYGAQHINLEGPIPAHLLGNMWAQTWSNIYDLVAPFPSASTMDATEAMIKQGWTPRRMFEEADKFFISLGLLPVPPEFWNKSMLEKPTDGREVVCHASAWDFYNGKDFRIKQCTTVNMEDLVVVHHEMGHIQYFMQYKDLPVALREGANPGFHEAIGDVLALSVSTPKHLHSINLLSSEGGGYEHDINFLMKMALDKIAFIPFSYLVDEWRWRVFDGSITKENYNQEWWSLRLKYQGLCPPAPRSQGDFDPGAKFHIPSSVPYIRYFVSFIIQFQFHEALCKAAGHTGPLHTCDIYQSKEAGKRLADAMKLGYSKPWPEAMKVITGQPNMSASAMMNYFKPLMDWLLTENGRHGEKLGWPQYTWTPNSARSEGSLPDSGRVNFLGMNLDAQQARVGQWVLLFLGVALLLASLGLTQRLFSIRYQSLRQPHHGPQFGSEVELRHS
OBSERVABLE: IC50 (nM)

I = C[C@@H](C(=O)O)N1CCC(C)(CS)C1=O (stereo partly shown)
II = C[C@@H](C(=O)O)N1CC[C@](CS)(Cc2ccccc2)C1=O
III = CCC1(CS)CCN([C@@H](C)C(=O)O)C1=O (stereo partly shown)
Q: Write the entries in order, lowest recorded IC50 first. Hello, could you send the labels back in the order asked? Thank you.
Result: I, III, II
(I: 1000 nM, III: 2000 nM, II: 5000 nM)
